SYSTEM UNDER TEST: T1, 4H850-AA
T1 chain: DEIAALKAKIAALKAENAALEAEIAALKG
PROTOCOL NOTES: two-hybrid library CCmax;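 note: natural log of median RNA to DNA barcode read ratio; higher means stronger binding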
CONDITION: mean of both orientations
MEASUREMENT NAME: interaction score
I only need the number, thanks.

Worked examples follow.
DKIAALEAKIAALEAENAALKAEIAALKG [4H2330-AA]	1.43
DENAALKAKIAALKAEIAALEAKNAALKG [4H1864-AA]	0.223
DKIAALKAEIAALKAENAALKAEIAALEG [4H2649-AA]	1.99

Now consider a different binder.
Prompt: For DEIAALEAENAALEAKIAALKAKIAALKG [4H174-AA] , what is its reported interaction score?
Completion: 1.05

Hello, the source for this data is paper PMC10397247, in case you need it.
